Biological target: UniProt P08485
Sequence (P08485 whole entry): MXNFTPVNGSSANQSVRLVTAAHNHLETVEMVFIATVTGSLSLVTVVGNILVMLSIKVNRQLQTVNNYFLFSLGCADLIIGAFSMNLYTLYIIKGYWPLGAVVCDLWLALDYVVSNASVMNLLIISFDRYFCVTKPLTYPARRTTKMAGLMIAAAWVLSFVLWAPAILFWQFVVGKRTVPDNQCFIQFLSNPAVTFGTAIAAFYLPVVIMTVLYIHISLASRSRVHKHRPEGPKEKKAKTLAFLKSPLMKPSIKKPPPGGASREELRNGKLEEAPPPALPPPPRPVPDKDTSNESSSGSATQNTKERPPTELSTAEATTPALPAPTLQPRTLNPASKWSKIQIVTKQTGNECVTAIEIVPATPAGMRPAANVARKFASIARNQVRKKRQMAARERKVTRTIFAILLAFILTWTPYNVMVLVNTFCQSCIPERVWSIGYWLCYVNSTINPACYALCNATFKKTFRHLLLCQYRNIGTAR
Assay: mAChR M4 cell-based functional assay (calcium flux, antagonist mode vs EC80 acetylcholine), rat M4/Gqi5/CHO-K1 cells
Conditions: decrease of response elicited by EC80 acetylcholine; rat M4/Gqi5 CHO-K1 cells
readout label: pIC50
The meaning of pIC50 here: minus log10 of the concentration in molar units.

Challenge: # query: pIC50 of entry Cc1cccnc1CN1C[C@H]2C[C@H](Nc3ccc(S(=O)(=O)C4CCCCC4)nn3)C[C@H]2C1
Response given: 5.90

Challenge: # query: pIC50 of entry Cc1cccnc1CN1C[C@H]2C[C@H](Nc3ccc(S(=O)(=O)c4ccccc4)nn3)C[C@H]2C1
Response given: 5.54

Challenge: # query: pIC50 of entry CC1(C)CC(N2C[C@H]3C[C@H](Nc4ccc(-c5cc(F)ccc5Cl)nn4)C[C@H]3C2)CC(C)(C)O1
Response given: 6.29

Challenge: # query: pIC50 of entry O=S(=O)(c1ccc(N[C@H]2C[C@@H]3CN(CC4CCOCC4)C[C@@H]3C2)nn1)C1CCCCC1
Response given: 6.92

Challenge: # query: pIC50 of entry CC1(C)C(=O)N(C2CC2)c2nnc(N[C@H]3C[C@@H]4CN(CC5CCOCC5)C[C@@H]4C3)cc21
Response given: 5.40

Challenge: # query: pIC50 of entry Fc1ccc(Cl)c(-c2ccc(N[C@H]3C[C@@H]4CN(C5CCC(F)(F)CC5)C[C@@H]4C3)nn2)c1
Response given: 6.36

Challenge: # query: pIC50 of entry CC1(C)CC(N2C[C@H]3C[C@H](Nc4ccc(-c5cccc(F)c5)nn4)C[C@H]3C2)CCO1 (stereo partly shown)
Response given: 6.53

Challenge: # query: pIC50 of entry CC1(C)CCC(N2C[C@H]3C[C@H](Nc4ccc(-c5cc(F)ccc5Cl)nn4)C[C@H]3C2)CC1
Response given: 6.99

Challenge: # query: pIC50 of entry Cn1cc2cc(-c3ccc(N[C@H]4C[C@@H]5CN(C6CCOC(C)(C)C6)C[C@@H]5C4)nn3)ccc2n1 (stereo partly shown)
Response given: 6.43

Challenge: # query: pIC50 of entry CC1(C)CC(N2C[C@H]3C[C@H](Nc4ccc(-c5ccc(F)cc5)nn4)C[C@H]3C2)CCO1 (stereo partly shown)
Response given: 6.27

Challenge: # query: pIC50 of entry Fc1ccc(Cl)c(-c2ccc(N[C@H]3C[C@@H]4CN(C5CCCC5)C[C@@H]4C3)nn2)c1
Response given: 6.03

Challenge: # query: pIC50 of entry C=CCN1C(=O)C(C)(C)c2cc(N[C@H]3C[C@@H]4CN(CCC(C)(C)C)C[C@@H]4C3)nnc21
Response given: 6.43

Challenge: # query: pIC50 of entry Fc1ccc(Cl)c(-c2ccc(N[C@H]3C[C@@H]4CN(C5Cc6ccccc6C5)C[C@@H]4C3)nn2)c1
Response given: 6.46

Challenge: # query: pIC50 of entry [O-][S+](c1ccccc1)c1ccc(N[C@H]2C[C@@H]3CN(Cc4ccc5c(c4)OCO5)C[C@@H]3C2)nn1 (stereo partly shown)
Response given: 6.71

Challenge: # query: pIC50 of entry CC(=O)Nc1ccc(-c2ccc(N[C@H]3C[C@@H]4CN(C5CCOC(C)(C)C5)C[C@@H]4C3)nn2)cc1 (stereo partly shown)
Response given: 6.89
